test system: HeLa cells; settings: human
Observation type: CC50

# CC50 lookup, item COc1ccc([C@H]2c3[nH]c4ccc(Cl)cc4c3CCN2C(=O)Oc2ccc(Cl)cc2)cc1 (racemic)
> 1000 nM

---

test system: Vero cells; conditions: monkey
Observation type: CC50

Lab note: need CC50 for COc1ccc([C@H]2c3[nH]c4ccc(Cl)cc4c3CCN2C(=O)Oc2ccc(Cl)cc2)cc1 (racemic) on Vero cells, anyone have it?
> 1 µM

---

test system: MDCK cells; settings: dog
Observation type: CC50

# CC50 lookup, item COc1ccc([C@H]2c3[nH]c4ccc(Cl)cc4c3CCN2C(=O)Oc2ccc(Cl)cc2)cc1 (racemic)
> 1000 nM

---

system: Adenovirus; experiment: Adenovirus CPE protection assay in HeLa cells; format: cell-based; details: unidentified adenovirus; Adenovirus; DNA; HeLa; CPE protection
pIC50: −log10 of the molar value.
Observation type: pIC50

# pIC50 lookup, item COc1ccc([C@H]2c3[nH]c4ccc(Cl)cc4c3CCN2C(=O)Oc2ccc(Cl)cc2)cc1 (racemic) [Compound #10]
< 6.00

---

test system: RSV; test: RSV CPE protection assay in Vero cells; type: cell-based, respiratory syncytial virus; conditions: human respiratory syncytial virus, Vero
Observation type: IC50 (nM)
Quick note: give the figure in nM, leave out the unit.

Lab note: need IC50 for COc1ccc([C@H]2c3[nH]c4ccc(Cl)cc4c3CCN2C(=O)Oc2ccc(Cl)cc2)cc1 (racemic) on RSV, anyone have it?
250

---

tested on: HCV genotype 2a replicon; assay: HCV subgenomic replicon assay, genotype 2a; format: cell-based; settings: Hepatitis C virus
Observation type: IC50

# IC50 lookup, item COc1ccc([C@H]2c3[nH]c4ccc(Cl)cc4c3CCN2C(=O)Oc2ccc(Cl)cc2)cc1 (racemic) [Compound #10]
< 3 nM

---

test system: Vero E6 cells; details: Vaccinia assay line
Observation type: CC50 (nM)
Quick note: give the figure in nM, leave out the unit.

# CC50 lookup, item COc1ccc([C@H]2c3[nH]c4ccc(Cl)cc4c3CCN2C(=O)Oc2ccc(Cl)cc2)cc1 (racemic)
83

---

Test system: HIV-1
Experiment: HIV-1 CPE protection assay in MT-2 cells
Type: cell-based
Settings: Human immunodeficiency virus 1, MT2, 72 h; human cell line; 3 days post-infection; normalized to cell number after treatment in the absence of infection; read-out: EC50, prevention of cytopathic effect
Protocol: Antiviral activity against HIV-1 is determined in a human cell line. […] The activity against HIV may also be tested in human peripheral blood mononuclear cells in cell culture.
Observation type: EC50 (nM)
Quick note: give the figure in nM, leave out the unit.

# EC50 lookup, item COc1ccc([C@H]2c3[nH]c4ccc(Cl)cc4c3CCN2C(=O)Oc2ccc(Cl)cc2)cc1 (racemic) [Compound #10]
22

---

system: Vero E6 cells; details: Dengue 2 assay line
Observation type: CC50
Give me the value, and tack the unit on after it.

# CC50 lookup, item COc1ccc([C@H]2c3[nH]c4ccc(Cl)cc4c3CCN2C(=O)Oc2ccc(Cl)cc2)cc1 (racemic) [Compound #10]
700 nM

---

assay: Solubility in water
Observation type: solubility

# solubility lookup, item `O=C(Oc1ccc(Cl)cc1)N1CCc2c([nH]c3ccc(Cl)cc23)[C@@H]1c1ccc(OCC[C@H](O)CO)cc1`
~1 µg/mL
